The measurements presented in this section are drawn from ChEMBL document CHEMBL1126849.

Target System: Estrogen receptor (Mus musculus) (UniProt O08537+P19785)
Sequence (O08537 whole entry, looked up): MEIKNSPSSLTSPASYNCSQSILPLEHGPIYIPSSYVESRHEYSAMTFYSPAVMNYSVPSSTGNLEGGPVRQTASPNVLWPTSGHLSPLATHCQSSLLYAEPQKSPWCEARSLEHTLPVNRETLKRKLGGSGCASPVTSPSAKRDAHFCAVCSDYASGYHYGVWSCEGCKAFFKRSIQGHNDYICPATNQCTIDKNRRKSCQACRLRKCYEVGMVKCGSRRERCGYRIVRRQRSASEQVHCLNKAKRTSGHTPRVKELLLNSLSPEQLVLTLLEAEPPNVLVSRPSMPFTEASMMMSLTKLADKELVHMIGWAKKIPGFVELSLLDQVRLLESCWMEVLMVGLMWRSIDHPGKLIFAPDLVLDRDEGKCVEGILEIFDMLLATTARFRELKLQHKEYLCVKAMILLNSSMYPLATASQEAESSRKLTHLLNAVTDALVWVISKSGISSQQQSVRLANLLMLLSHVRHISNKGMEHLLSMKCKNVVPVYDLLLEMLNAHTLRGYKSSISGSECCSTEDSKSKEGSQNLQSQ
Sequence (P19785 whole entry, looked up): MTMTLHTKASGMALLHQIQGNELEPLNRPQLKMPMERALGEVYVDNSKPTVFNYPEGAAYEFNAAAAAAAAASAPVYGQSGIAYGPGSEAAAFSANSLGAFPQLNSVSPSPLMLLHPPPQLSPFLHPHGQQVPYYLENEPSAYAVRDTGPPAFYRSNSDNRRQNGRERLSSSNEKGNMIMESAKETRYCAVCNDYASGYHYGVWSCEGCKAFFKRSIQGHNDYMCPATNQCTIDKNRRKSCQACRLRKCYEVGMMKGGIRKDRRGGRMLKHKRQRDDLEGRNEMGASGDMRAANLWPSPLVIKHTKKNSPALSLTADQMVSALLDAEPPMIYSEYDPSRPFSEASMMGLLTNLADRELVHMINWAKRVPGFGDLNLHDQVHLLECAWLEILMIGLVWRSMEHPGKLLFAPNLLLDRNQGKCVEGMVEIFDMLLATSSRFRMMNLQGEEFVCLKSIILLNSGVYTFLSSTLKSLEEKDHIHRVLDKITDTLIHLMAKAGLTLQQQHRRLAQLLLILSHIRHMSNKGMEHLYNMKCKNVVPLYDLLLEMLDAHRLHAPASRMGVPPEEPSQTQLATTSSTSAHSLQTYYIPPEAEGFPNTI
Experimental Details: Relative binding affinity (RBA) against murine cytoplasmic estrogen receptor incubated at 0-4 degree Celsius for 18 hours
Assay type: protein assay
Endpoint: RBA

These recorded examples may help you get a feel for the data.
# Chemical Smiles, Endpoint, Recorded Result
rows = [
    ("C=C[C@]1(O)CC[C@H]2[C@@H]3CCc4c(ccc(O)c4F)[C@H]3[C@@H](OC)C[C@@]21C", "RBA", 16.7),
    ("C=C[C@]1(O)CC[C@H]2[C@@H]3[C@H](C)Cc4c(ccc(O)c4F)[C@H]3CC[C@@]21C", "RBA", 62.4),
    ("C[C@@H]1Cc2cc(O)c(F)cc2[C@H]2CC[C@@]3(C)[C@@H](CC[C@@]3(O)/C=C\\I)[C@H]12", "RBA", 28.6),
    ("C=C[C@]1(O)CC[C@H]2[C@@H]3[C@H](C)Cc4cc(O)ccc4[C@H]3CC[C@@]21C", "RBA", 73.1),
]

P = C=C[C@]1(O)CC[C@H]2[C@@H]3CCc4cc(O)c(F)cc4[C@H]3[C@@H](OC)C[C@@]21C
Q = CO[C@H]1C[C@@]2(C)[C@@H](CC[C@@]2(O)/C=C\I)[C@@H]2CCc3c(ccc(O)c3F)[C@H]21
R = C[C@]12CC[C@@H]3c4cc(F)c(O)cc4CC[C@H]3[C@@H]1CC[C@@]2(O)/C=C/I
Prompt: List from greatest to least RBA. As an answer, provide the labels arranged in the order called for.
Response: Q, P, R
(Q: 37.9, P: 15.9, R: 6.2)

a = C=C[C@]1(O)CC[C@H]2[C@@H]3CCc4cc(O)ccc4[C@H]3[C@@H](OC)C[C@@]21C
b = C[C@@H]1Cc2c(ccc(O)c2F)[C@H]2CC[C@@]3(C)[C@@H](CC[C@@]3(O)/C=C\I)[C@H]12
Prompt: Between a and b , which one has the lower reported RBA value? Select an item and report its label.
Response: a

###

System: Rattus norvegicus
Experimental Details: Biodistribution in uterus / spleen, muscle, lungs of immature female rat after 5 hour administration of 3 micro Ci (111 kBq) in the absence of 60 microg estradiol
Format: ADME, organism-based
Condition Summary: in vivo
Endpoint: uterus to nontarget tissue ratio (%)

1 = CO[C@H]1C[C@@]2(C)[C@@H](CC[C@@]2(O)/C=C/I)[C@@H]2CCc3cc(O)c(F)cc3[C@H]21
2 = CO[C@H]1C[C@@]2(C)[C@@H](CC[C@@]2(O)/C=C\I)[C@@H]2CCc3c(ccc(O)c3F)[C@H]21
3 = C[C@@H]1Cc2cc(O)c(F)cc2[C@H]2CC[C@@]3(C)[C@@H](CC[C@@]3(O)/C=C/I)[C@H]12
Prompt: Going from lowest to highest recorded uterus to nontarget tissue ratio, rank the entries listed above. Ranked list of labels, please, in the requested order.
Response: 3, 1, 2
(3: 3.61%, 1: 8.56%, 2: 21.03%)

P = C[C@@H]1Cc2cc(O)c(F)cc2[C@H]2CC[C@@]3(C)[C@@H](CC[C@@]3(O)/C=C\I)[C@H]12
Q = C[C@]12CC[C@@H]3c4cc(F)c(O)cc4CC[C@H]3[C@@H]1CC[C@@]2(O)/C=C\I
Prompt: Pick the one with the larger uterus to nontarget tissue ratio: P vs Q Kindly give the label for the entry you pick.
Response: Q
(Q: 18.05%, P: 8.94%)

A = C[C@]12CC[C@@H]3c4ccc(O)c(F)c4CC[C@H]3[C@@H]1CC[C@@]2(O)/C=C\I
B = C[C@@H]1Cc2c(ccc(O)c2F)[C@H]2CC[C@@]3(C)[C@@H](CC[C@@]3(O)/C=C/I)[C@H]12
Prompt: Between the entries labelled A and B , which has a larger uterus to nontarget tissue ratio value on record? API: response body contains the label of the selected item.
Response: A
(A: 28.59%, B: 9.38%)

###

Test system: Rattus norvegicus
Experimental Details: Biodistribution in kidney of immature female rat after 1 hr administration of 3 micro Ci (111 kBq) in the presence of (+E2)
Type: ADME, organism-based
Condition Summary: in vivo
Endpoint: ID/g (%)

# Chemical Smiles, Display Unit, Recorded Result
data = [
    ("C[C@]12CC[C@@H]3c4ccc(O)c(F)c4CC[C@H]3[C@@H]1CC[C@@]2(O)/C=C\\I", "%", 0.85),
]

P = C[C@@H]1Cc2c(ccc(O)c2F)[C@H]2CC[C@@]3(C)[C@@H](CC[C@@]3(O)/C=C\I)[C@H]12
Q = C[C@@H]1Cc2cc(O)c(F)cc2[C@H]2CC[C@@]3(C)[C@@H](CC[C@@]3(O)/C=C/I)[C@H]12
Prompt: Lower ID/g: P or Q ? Please indicate the selected item by its label.
Response: Q
(Q: 0.49%, P: 0.79%)

###

Test system: Rattus norvegicus
Experimental Details: Biodistribution in kidney of immature female rat after 12 hour administration of 3 micro Ci (111 kBq) in the absence of 60 microg estradiol
Assay type: ADME, organism-based
Condition Summary: in vivo
Endpoint: ID/g (%)

Answered examples (8):
# Chemical Smiles, Target System, Recorded Result
rows = [
    ("C[C@@H]1Cc2cc(O)c(F)cc2[C@H]2CC[C@@]3(C)[C@@H](CC[C@@]3(O)/C=C\\I)[C@H]12", "Rattus norvegicus", 0.36),
    ("CO[C@H]1C[C@@]2(C)[C@@H](CC[C@@]2(O)/C=C/I)[C@@H]2CCc3cc(O)c(F)cc3[C@H]21", "Rattus norvegicus", 0.15),
    ("CO[C@H]1C[C@@]2(C)[C@@H](CC[C@@]2(O)/C=C\\I)[C@@H]2CCc3c(ccc(O)c3F)[C@H]21", "Rattus norvegicus", 1.23),
    ("C[C@@H]1Cc2cc(O)c(F)cc2[C@H]2CC[C@@]3(C)[C@@H](CC[C@@]3(O)/C=C/I)[C@H]12", "Rattus norvegicus", 0.15),
    ("C[C@]12CC[C@@H]3c4ccc(O)c(F)c4CC[C@H]3[C@@H]1CC[C@@]2(O)/C=C/I", "Rattus norvegicus", 0.08),
    ("C[C@@H]1Cc2c(ccc(O)c2F)[C@H]2CC[C@@]3(C)[C@@H](CC[C@@]3(O)/C=C\\I)[C@H]12", "Rattus norvegicus", 0.29),
    ("C[C@]12CC[C@@H]3c4cc(F)c(O)cc4CC[C@H]3[C@@H]1CC[C@@]2(O)/C=C\\I", "Rattus norvegicus", 0.14),
    ("C[C@]12CC[C@@H]3c4cc(F)c(O)cc4CC[C@H]3[C@@H]1CC[C@@]2(O)/C=C/I", "Rattus norvegicus", 0.06),
]

A = C[C@]12CC[C@@H]3c4ccc(O)c(F)c4CC[C@H]3[C@@H]1CC[C@@]2(O)/C=C\I
B = C[C@@H]1Cc2c(ccc(O)c2F)[C@H]2CC[C@@]3(C)[C@@H](CC[C@@]3(O)/C=C/I)[C@H]12
Prompt: Select the item whose ID/g value is smaller, choosing between A and B . Refer to your chosen entry by its label in the reply.
Response: B
(B: 0.32%, A: 0.74%)

###

Tested on: Rattus norvegicus
Experimental Details: Biodistribution in muscle of immature female rat after 5 hour administration of 3 micro Ci (111 kBq) in the absence of 60 microg estradiol
Assay type: ADME, organism-based, Muscle tissue
Condition Summary: in vivo
Endpoint: ID/g (%)

# Chemical Smiles, ID/g [%]
data = [
    ("C[C@@H]1Cc2c(ccc(O)c2F)[C@H]2CC[C@@]3(C)[C@@H](CC[C@@]3(O)/C=C\\I)[C@H]12", 0.34),
]

A = C[C@]12CC[C@@H]3c4cc(F)c(O)cc4CC[C@H]3[C@@H]1CC[C@@]2(O)/C=C/I
B = C[C@@H]1Cc2c(ccc(O)c2F)[C@H]2CC[C@@]3(C)[C@@H](CC[C@@]3(O)/C=C/I)[C@H]12
Prompt: Param metric = ID/g; output whichever of A , B has the minimum value. API: response body contains the label of the selected item.
Response: A

###

System: Rattus norvegicus
Experimental Details: Biodistribution in uterus of immature female rat after 1 hr administration of 3 micro Ci (111 kBq) in the presence of (+E2)
Assay type: ADME, organism-based
Condition Summary: in vivo
Endpoint: ID/g (%)

See these solved cases before continuing.
# Chemical Smiles, Display Unit, Recorded Result
data = [
    ("C[C@@H]1Cc2c(ccc(O)c2F)[C@H]2CC[C@@]3(C)[C@@H](CC[C@@]3(O)/C=C\\I)[C@H]12", "%", 0.5),
    ("CO[C@H]1C[C@@]2(C)[C@@H](CC[C@@]2(O)/C=C/I)[C@@H]2CCc3cc(O)c(F)cc3[C@H]21", "%", 0.81),
    ("C[C@]12CC[C@@H]3c4cc(F)c(O)cc4CC[C@H]3[C@@H]1CC[C@@]2(O)/C=C\\I", "%", 0.68),
    ("C[C@]12CC[C@@H]3c4cc(F)c(O)cc4CC[C@H]3[C@@H]1CC[C@@]2(O)/C=C/I", "%", 0.52),
]

a = C[C@@H]1Cc2cc(O)c(F)cc2[C@H]2CC[C@@]3(C)[C@@H](CC[C@@]3(O)/C=C\I)[C@H]12
b = C[C@]12CC[C@@H]3c4ccc(O)c(F)c4CC[C@H]3[C@@H]1CC[C@@]2(O)/C=C\I
Prompt: Parameter metric = ID/g. Return the lower-valued option from a and b . In your reply, give the label of the chosen option.
Response: a
(a: 0.39%, b: 0.86%)
